target: mTOR (human recombinant aa mTOR 1360-2549) (Homo sapiens (Human), UniProt P42345); test: mTOR enzymatic test by TR-FRET (phosphorylation of GFP-4EBP1); assay type: biochemical
Sequence (P42345 1360-2549): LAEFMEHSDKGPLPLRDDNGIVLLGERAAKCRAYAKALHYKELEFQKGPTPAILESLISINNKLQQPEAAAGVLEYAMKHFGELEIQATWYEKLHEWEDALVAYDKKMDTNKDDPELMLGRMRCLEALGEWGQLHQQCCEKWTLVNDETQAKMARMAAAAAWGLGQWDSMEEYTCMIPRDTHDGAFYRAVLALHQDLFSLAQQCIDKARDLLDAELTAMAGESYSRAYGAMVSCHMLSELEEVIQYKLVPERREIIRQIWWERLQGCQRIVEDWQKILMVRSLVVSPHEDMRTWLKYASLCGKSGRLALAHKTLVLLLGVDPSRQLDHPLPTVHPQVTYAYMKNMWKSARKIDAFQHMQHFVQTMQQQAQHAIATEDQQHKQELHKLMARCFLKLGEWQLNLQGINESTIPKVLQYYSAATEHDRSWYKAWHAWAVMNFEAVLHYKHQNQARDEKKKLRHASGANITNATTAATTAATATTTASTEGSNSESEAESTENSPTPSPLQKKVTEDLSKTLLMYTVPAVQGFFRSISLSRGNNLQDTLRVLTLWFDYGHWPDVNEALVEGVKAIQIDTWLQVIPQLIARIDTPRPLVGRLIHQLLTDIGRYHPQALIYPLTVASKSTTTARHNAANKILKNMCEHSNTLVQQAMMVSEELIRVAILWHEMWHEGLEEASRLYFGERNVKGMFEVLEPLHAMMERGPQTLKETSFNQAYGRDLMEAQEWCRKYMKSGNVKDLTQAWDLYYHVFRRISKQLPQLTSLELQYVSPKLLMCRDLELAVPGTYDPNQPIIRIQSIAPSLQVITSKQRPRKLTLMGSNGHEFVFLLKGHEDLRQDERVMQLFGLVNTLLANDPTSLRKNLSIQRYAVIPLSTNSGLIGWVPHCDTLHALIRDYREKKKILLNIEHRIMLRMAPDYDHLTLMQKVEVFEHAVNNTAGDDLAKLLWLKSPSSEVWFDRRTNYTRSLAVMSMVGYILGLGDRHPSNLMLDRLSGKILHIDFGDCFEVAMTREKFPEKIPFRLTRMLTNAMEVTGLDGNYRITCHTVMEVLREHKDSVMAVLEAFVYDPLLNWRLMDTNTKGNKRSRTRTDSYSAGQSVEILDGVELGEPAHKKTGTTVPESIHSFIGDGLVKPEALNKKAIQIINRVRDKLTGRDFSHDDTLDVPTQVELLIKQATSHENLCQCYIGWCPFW
METRIC: IC50
Note to self: number, then unit, no commentary.

Past entries and their recorded results:
CCN1CC(C)(C)Oc2nc(N3CC4CCC(C3)O4)nc(-c3ccc(NC(=O)Nc4ccnc(N(C)C)c4)c(F)c3)c2C1=O :: 90 nM
CCN1CC(C)(C)Oc2nc(N3CCOC[C@@H]3C)nc(-c3ccc(NC(=O)NC4CC4)c(F)c3)c2C1=O :: 40 nM
CCN1CC(C)(C)Oc2nc(N3CCOC[C@@H]3C)nc(-c3ccc(NC(=O)Nc4ccc(C(=O)N5CCC(N(C)C)CC5)cc4)cc3)c2C1=O :: 51 nM

With those in mind, consider the next compound.
Summary for this compound, "COc1ccc(NC(=O)Nc2ccc(-c3nc(N4CC5CCC(C4)O5)nc4c3C(=O)N(C)CC(C)(C)O4)cc2)nc1" : IC50 is 32 nM

* * *

target: mTOR (human recombinant aa mTOR 1360-2549) (Homo sapiens (Human), UniProt P42345); assay: mTOR enzymatic test by TR-FRET (phosphorylation of GFP-4EBP1)
Overview of reported IC50 across a group of molecules:
Kindly write the number and append the unit.

Per the records, this molecule ( CCN1CC(C)(C)Oc2nc(N3CC4CCC(C3)O4)nc(-c3ccc(NC(=O)OCCO)c(F)c3)c2C1=O [Example 222] ) has IC50 equal to 123 nM

Reported IC50 of CCN1CC(C)(C)Oc2nc(N3CC4CCC(C3)O4)nc(-c3ccc(NC(=O)Nc4ccc(CN5CCCCC5)cc4)cc3)c2C1=O [Example 203] : 96 nM

Lookup result for CCN1CC(C)(C)Oc2nc(N3CC4CCC(C3)O4)nc(-c3ccc(NC(=O)Nc4ccccn4)cc3)c2C1=O [Example 33] ; measured IC50: 24 nM

Entry COCCN1CC(C)(C)Oc2nc(N3CC4CCC(C3)O4)nc(-c3ccc(NC(=O)Nc4ccon4)cc3)c2C1=O [Example 172] — recorded IC50 = 20 nM

Field IC50 (entry CCN1CC(C)(C)Oc2nc(N3C4CCC3COC4)nc(-c3ccc(NC(=O)Nc4ccnc(C)c4)c(F)c3)c2C1=O [Example 55] ) reads 66 nM

Data point: CCN1CC(C)(C)Oc2nc(N3CC4CCC(C3)O4)nc(-c3ccc(Nc4nnc(-c5ccc(OC)nc5)[nH]4)c(F)c3)c2C1=O [Example 183] ; IC50 = 128 nM

Lab book: IC50 of COCCN1CC(C)(C)Oc2nc(N3CCOC[C@@H]3C)nc(-c3ccc(NC(=O)NCC(C)(C)O)c(F)c3)c2C1=O [Example 226] noted as 1280 nM

IC50 recorded for this molecule, CCN1CC(C)(C)Oc2nc(N3CC4CCC(C3)O4)nc(-c3ccc(NC(=O)OCCO)cc3F)c2C1=O [Example 246] , is 82 nM

// IC50 value for CCN1CC(C)(C)Oc2nc(N3CCOC[C@@H]3C)nc(-c3ccc(NC(=O)Nc4ccc(C(=O)N(C)CCN(C)C)cc4)cc3)c2C1=O [Example 215] : 48 nM

Reported IC50 of CCN1CC(C)(C)Oc2nc(N3CC4CCC(C3)O4)nc(-c3ccc(NC(=O)Nc4ccccn4)c(F)c3)c2C1=O [Example 158] : 64 nM

Form: molecule = CCN1CC(C)(C)Oc2nc(N3CC4CCC(C3)O4)nc(-c3ccc(OC)c(CO)c3)c2C1=O [Example 101] ; IC50 = 4040 nM

Just so you know, measured IC50 for CCN1CC(C)(C)Oc2nc(N3CCOC[C@@H]3C)nc(-c3ccc(NC(=O)Nc4cnccn4)c(F)c3)c2C1=O [Example 160] came out at 41 nM

Entry CCNC(=O)Nc1ccc(-c2nc(N3CC4CCC(C3)O4)nc3c2C(=O)N(C2CCOCC2)CC(C)(C)O3)cc1 [Example 14] , IC50 reported as 41 nM

// field: IC50; key: CCN1CC(C)(C)Oc2nc(N3CC4CCC(C3)O4)nc(-c3ccc(NC(=O)Nc4ccncc4F)c(F)c3)c2C1=O [Example 76] ; value = 28 nM

So, CCN1CC(C)(C)Oc2nc(N3CC4CCC(C3)O4)nc(-c3ccc(NC(=O)Nc4ccc(C)cn4)cc3)c2C1=O [Example 34] ? Its IC50 was 43 nM
